Recorded values, source ChEMBL document CHEMBL4765302.

- SYSTEM: Histone deacetylase 2 (Homo sapiens, UniProt Q92769)
- Sequence (Q92769 whole entry): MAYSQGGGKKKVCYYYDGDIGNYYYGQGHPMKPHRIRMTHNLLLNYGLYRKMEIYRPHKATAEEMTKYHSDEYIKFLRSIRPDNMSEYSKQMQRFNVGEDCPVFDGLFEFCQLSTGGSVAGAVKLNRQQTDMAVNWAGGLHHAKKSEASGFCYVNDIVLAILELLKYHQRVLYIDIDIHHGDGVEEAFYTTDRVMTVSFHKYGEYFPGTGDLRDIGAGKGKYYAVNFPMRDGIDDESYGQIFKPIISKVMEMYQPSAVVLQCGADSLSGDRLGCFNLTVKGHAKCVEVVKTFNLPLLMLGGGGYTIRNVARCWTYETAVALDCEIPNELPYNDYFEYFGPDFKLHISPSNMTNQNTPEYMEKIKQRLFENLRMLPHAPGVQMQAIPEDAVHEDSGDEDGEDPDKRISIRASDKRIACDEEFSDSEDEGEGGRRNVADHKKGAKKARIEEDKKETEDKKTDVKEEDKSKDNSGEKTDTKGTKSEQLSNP
- MEASUREMENT_PROTOCOL: Inhibition of recombinant human HDAC2 using FLUOR-DE-LYS-Green as substrate incubated for 10 mins followed by substrate addition and measured after 30 mins by fluorescence based assay
PARAMETER_MEASURED: pIC50
Give bare numbers, as −log10 of the molar value.

Nc1ccc(F)cc1NC(=O)c1ccc(CNC(=O)/C=C/c2cccnc2)cc1	7.18

q: Quick one: pIC50 of Cc1ccc(Nc2nc(Cl)nc3c2ncn3Cc2ccc(C(=O)Nc3ccccc3N)cc2)cc1 ?
a: 7.64

---

Could you please report measured inhibition at 8 µM for the items listed next?
- System: NCI-H460
- MEASUREMENT_PROTOCOL: Antiproliferative activity against human H460 cells assessed as reduction in cell growth at 8 uM incubated for 72 hrs by CCK-8 assay relative to control
- Type: functional
// unit must come after the numeric part

Past entries and their recorded results:
CCCCn1cnc2c(NCc3ccc(C(=O)Nc4ccccc4N)cc3)nc(Cl)nc21	23.7%
Nc1ccccc1NC(=O)c1ccc(Cn2cnc3c(Nc4ccccc4)nc(Cl)nc32)cc1	77.8%

Would you mind giving inhibition at 8 µM for every compound in the list below?
1. Cc1ccc(Nc2nc(Cl)nc3c2ncn3Cc2ccc(/C=C/C(=O)Nc3ccccc3N)cc2)cc1
2. CN1CCN(c2nc(Cl)nc3c2ncn3Cc2ccc(C(=O)Nc3ccccc3N)cc2)CC1

a:
["51.3%", "55%"]

Would you mind giving inhibition at 8 µM for every compound in the list below?
1. Cc1ccc(Nc2nc(Cl)nc3c2ncn3Cc2ccc(C(=O)Nc3ccccc3N)cc2)cc1
2. Nc1ccccc1NC(=O)c1ccc(Cn2cnc3c(Nc4cccc(Cl)c4)nc(Cl)nc32)cc1
3. CCC(C)n1cnc2c(NCc3ccc(C(=O)Nc4ccccc4N)cc3)nc(Cl)nc21 (centres undefined)
4. Nc1ccc(F)cc1NC(=O)c1ccc(CNC(=O)/C=C/c2cccnc2)cc1
5. Nc1ccccc1NC(=O)/C=C/c1ccc(Cn2cnc3c(NCc4ccccc4)nc(Cl)nc32)cc1

a:
["82.5%", "67%", "67.7%", "38.2%", "49.1%"]

---

- MEASUREMENT_PROTOCOL: AUC (0 to t) in ICR mouse at 20 mg/kg, ip measured upto 24 hrs by LC-MS/MS analysis
- MEASUREMENT_PARAMETERS: in vivo
PARAMETER_MEASURED: AUC(0-t) at 24 h
// unit must come after the numeric part

q: Quick one: AUC(0-t) at 24 h of Cc1ccc(Nc2nc(Cl)nc3c2ncn3Cc2ccc(C(=O)Nc3ccccc3N)cc2)cc1 ?
a: 7240 ng·h/mL

---

- SYSTEM: Histone deacetylase 1 (Homo sapiens, UniProt Q13547)
- Sequence (Q13547 whole entry): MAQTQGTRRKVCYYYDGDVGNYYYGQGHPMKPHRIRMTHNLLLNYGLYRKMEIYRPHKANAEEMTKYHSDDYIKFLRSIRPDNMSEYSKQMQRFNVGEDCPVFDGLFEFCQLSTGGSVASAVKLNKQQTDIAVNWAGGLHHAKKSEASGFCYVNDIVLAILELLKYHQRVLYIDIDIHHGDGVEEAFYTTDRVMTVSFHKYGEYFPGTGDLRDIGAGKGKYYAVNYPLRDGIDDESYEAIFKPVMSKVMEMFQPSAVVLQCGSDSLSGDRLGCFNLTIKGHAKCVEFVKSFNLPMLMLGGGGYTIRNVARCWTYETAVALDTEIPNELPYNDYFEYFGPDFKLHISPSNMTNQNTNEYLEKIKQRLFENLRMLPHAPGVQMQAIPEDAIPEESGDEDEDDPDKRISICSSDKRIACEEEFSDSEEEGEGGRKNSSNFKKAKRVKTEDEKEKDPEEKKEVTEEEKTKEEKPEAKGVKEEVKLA
- MEASUREMENT_PROTOCOL: Inhibition of recombinant human HDAC1 at 10 uM using SIRT1 as substrate incubated for 10 mins followed by substrate addition and measured after 30 mins by fluorescence based assay relative to control
- MEASUREMENT_PARAMETERS: time 40.0 min
Could you please report measured inhibition for the items listed next?

CN1CCN(c2nc(Cl)nc3c2ncn3Cc2ccc(C(=O)Nc3ccccc3N)cc2)CC1	80.5%
COC(CCn1cnc2c(NCc3ccc(C(=O)Nc4ccccc4N)cc3)nc(Cl)nc21)OC	29.5%
Nc1ccccc1NC(=O)/C=C/c1ccc(Cn2cnc3c(Nc4ccccc4)nc(Cl)nc32)cc1	14.8%
Nc1ccccc1NC(=O)/C=C/c1ccc(Cn2cnc3c(NC4CCCCC4)nc(Cl)nc32)cc1	28.2%
Nc1ccccc1NC(=O)/C=C/c1ccc(Cn2cnc3c(N4CCOCC4)nc(Cl)nc32)cc1	25.7%

Would you mind giving inhibition for every compound in the list below?
1. Cc1ccc(Nc2nc(Cl)nc3c2ncn3Cc2ccc(/C=C/C(=O)Nc3ccccc3N)cc2)cc1
2. Nc1ccccc1NC(=O)c1ccc(Cn2cnc3c(Nc4cccc(OC(F)(F)F)c4)nc(Cl)nc32)cc1

a:
1: 41.8%; 2: 37.4%

Would you mind giving inhibition for every compound in the list below?
1. Nc1ccccc1NC(=O)c1ccc(Cn2cnc3c(Nc4cccc(Cl)c4)nc(Cl)nc32)cc1
2. Nc1ccccc1NC(=O)c1ccc(Cn2cnc3c(Nc4ccc(-c5ccccn5)cc4)nc(Cl)nc32)cc1

a:
1: 61.3%; 2: 43.9%

---

Could you please report measured IC50 for the items listed next?
- System: A-375
- MEASUREMENT_PROTOCOL: Antiproliferative activity against human A-375 cells assessed as reduction in cell growth incubated for 72 hrs by CCK-8 assay
- Format: functional, cell-based
- MEASUREMENT_PARAMETERS: A-375, 72 h
Answers are plain numbers, in nM.

Past entries and their recorded results:
Cc1ccc(Nc2nc(Cl)nc3c2ncn3Cc2ccc(C(=O)Nc3ccccc3N)cc2)cc1	470
CCC(C)n1cnc2c(NCc3ccc(C(=O)Nc4ccccc4N)cc3)nc(Cl)nc21 (stereo not drawn)	2880

Would you mind giving IC50 for every compound in the list below?
1. CC1CCN(c2nc(Cl)nc3c2ncn3Cc2ccc(C(=O)Nc3ccccc3N)cc2)CC1
2. Nc1ccccc1NC(=O)c1ccc(Cn2cnc3c(Nc4cccc(Cl)c4)nc(Cl)nc32)cc1
3. Nc1ccccc1NC(=O)c1ccc(Cn2cnc3c(Nc4ccccc4)nc(Cl)nc32)cc1

a:
1. 4240
2. 6080
3. 2800

Would you mind giving IC50 for every compound in the list below?
1. CC[C@H](CO)Nc1nc(NCc2ccccc2)c2ncn(C(C)C)c2n1
2. Nc1ccccc1NC(=O)c1ccc(Cn2cnc3c(NCc4ccccc4)nc(Cl)nc32)cc1
3. Nc1ccc(F)cc1NC(=O)c1ccc(CNC(=O)/C=C/c2cccnc2)cc1
4. Nc1ccccc1NC(=O)c1ccc(Cn2cnc3c(N4CCOCC4)nc(Cl)nc32)cc1
5. Nc1ccccc1NC(=O)c1ccc(Cn2cnc3c(Nc4ccc(-c5ccccn5)cc4)nc(Cl)nc32)cc1
6. Nc1ccccc1NC(=O)c1ccc(CNc2nc(Cl)nc3c2ncn3C2CCCC2)cc1

a:
1: 11800; 2: 5830; 3: 6720; 4: 2680; 5: 18500; 6: 2790

Would you mind giving IC50 for every compound in the list below?
1. CC(C)n1cnc2c(NCc3ccc(C(=O)Nc4ccccc4N)cc3)nc(Cl)nc21
2. CN1CCN(c2nc(Cl)nc3c2ncn3Cc2ccc(C(=O)Nc3ccccc3N)cc2)CC1

a:
2170
1600

---

- SYSTEM: UniProt:Q13547
- MEASUREMENT_PROTOCOL: Inhibition of recombinant human HDAC1 at 10 uM using SIRT1 as substrate incubated for 10 mins followed by substrate addition and measured after 30 mins by fluorescence based assay relative to control
- MEASUREMENT_PARAMETERS: time 40.0 min
PARAMETER_MEASURED: inhibition (%)
Numbers only, in %.

CC(C)n1cnc2c(NCc3ccc(C(=O)Nc4ccccc4N)cc3)nc(Cl)nc21	89.7
CCCn1cnc2c(NCc3ccc(C(=O)Nc4ccccc4N)cc3)nc(Cl)nc21	11.4
Nc1ccccc1NC(=O)c1ccc(Cn2cnc3c(N4CCOCC4)nc(Cl)nc32)cc1	93.2
CCC(C)n1cnc2c(NCc3ccc(C(=O)Nc4ccccc4N)cc3)nc(Cl)nc21 (configuration not stated)	94.7
CCCCn1cnc2c(Nc3cccc(Cl)c3)nc(NCCOCc3ccc(/C=C/C(=O)Nc4ccccc4N)cc3)nc21	24.6
CC1CCN(c2nc(Cl)nc3c2ncn3Cc2ccc(C(=O)Nc3ccccc3N)cc2)CC1	75.3

Continue with the compound presented below.
q: Quick one: inhibition of CC1CCN(c2nc(Cl)nc3c2ncn3Cc2ccc(/C=C/C(=O)Nc3ccccc3N)cc2)CC1 ?
a: 4.87

---

- SYSTEM: Histone deacetylase 1 (Homo sapiens)
- MEASUREMENT_PROTOCOL: Inhibition of recombinant human HDAC1 at 10 uM using SIRT1 as substrate incubated for 10 mins followed by substrate addition and measured after 30 mins by fluorescence based assay relative to control
- MEASUREMENT_PARAMETERS: time 40.0 min
Quick rule: inhibition of at least 30% means 1.0, below that means 0.0.

Nc1ccccc1NC(=O)/C=C/c1ccc(Cn2cnc3c(Nc4cccc(Cl)c4)nc(Cl)nc32)cc1	0.0
Nc1ccccc1NC(=O)/C=C/c1ccc(Cn2cnc3c(NCc4ccccc4)nc(Cl)nc32)cc1	0.0
Nc1ccccc1NC(=O)c1ccc(Cn2cnc3c(NCc4ccccc4)nc(Cl)nc32)cc1	1.0

q: Please indicate if the recorded inhibition for CCCCn1cnc2c(NCc3ccc(C(=O)Nc4ccccc4N)cc3)nc(Cl)nc21 meets or exceeds 30%.
a: 0.0

q: Please indicate if the recorded inhibition for Nc1ccccc1NC(=O)c1ccc(CNc2nc(Cl)nc3c2ncn3C2CCCC2)cc1 meets or exceeds 30%.
a: 1.0

q: Please indicate if the recorded inhibition for Nc1ccccc1NC(=O)c1ccc(Cn2cnc3c(Nc4ccccc4)nc(Cl)nc32)cc1 meets or exceeds 30%.
a: 1.0

q: Please indicate if the recorded inhibition for Nc1ccccc1NC(=O)/C=C/c1ccc(Cn2cnc3c(Nc4cccc(OC(F)(F)F)c4)nc(Cl)nc32)cc1 meets or exceeds 30%.
a: 1.0

q: Please indicate if the recorded inhibition for Cc1ccc(Nc2nc(Cl)nc3c2ncn3Cc2ccc(C(=O)Nc3ccccc3N)cc2)cc1 meets or exceeds 30%.
a: 1.0

q: Please indicate if the recorded inhibition for Nc1ccccc1NC(=O)c1ccc(CNc2nc(Cl)nc3c2ncn3Cc2ccccc2)cc1 meets or exceeds 30%.
a: 0.0
